# TGT: SSTR3 (Homo sapiens, UniProt P32745)
# Construct: purchased Promega (in-house HiBiT-GPCR construct library, NanoBRET)
# Sequence (P32745 whole entry): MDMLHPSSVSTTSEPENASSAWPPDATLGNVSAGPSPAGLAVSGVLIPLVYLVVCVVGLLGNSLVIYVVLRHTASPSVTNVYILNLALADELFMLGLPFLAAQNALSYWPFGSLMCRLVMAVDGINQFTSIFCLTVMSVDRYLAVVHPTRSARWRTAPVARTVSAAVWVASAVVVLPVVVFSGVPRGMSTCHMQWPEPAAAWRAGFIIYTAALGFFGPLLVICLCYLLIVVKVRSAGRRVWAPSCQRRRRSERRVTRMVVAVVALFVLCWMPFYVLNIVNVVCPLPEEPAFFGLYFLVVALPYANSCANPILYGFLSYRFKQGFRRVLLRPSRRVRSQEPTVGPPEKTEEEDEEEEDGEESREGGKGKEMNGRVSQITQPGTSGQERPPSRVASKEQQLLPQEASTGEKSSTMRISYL
# PROTOCOL_DESCRIPTION: NanoBRET screen HiBiT-SSTR3 in HEK293
# Type: binding
# CONDITION_DETAILS: SSTR3; tracer 1μM
# Experimental: Each tracer candidate was screened across the entire library of HiBiT-GPCR constructs using NanoBRET as the detection modality. As depicted in Figure 4A, the specificity of interactions was evaluated through decrease in BRET due to competitive displacement of a bound tracer by excess parental compound. Each tracer was analyzed for binding to each HiBiT-GPCR fusion in the absence and in the presence of competing parental compound. […]
QUANTITY: NanoBRET Fold Response
# output: bare number, no unit

O=C(CCc1ccc2n1[B-](F)(F)[N+]1=C(c3ccc[nH]3)C=CC1=C2)NCc1ccc(C(=O)NCCOCCC(=O)N[C@@H]2CC[C@@]3(O)[C@H]4Cc5ccc(O)c6c5[C@@]3(CCN4CC3CC3)[C@H]2O6)cc1 [Naltrexone-3-NB590] yielded NanoBRET Fold Response of 1.01

`CCCn1c(=O)c2[nH]c(-c3ccc(OCC(=O)NCCNC(=O)CCOCCNC(=O)c4ccc(CNC(=O)CCc5ccc6n5[B-](F)(F)[N+]5=C(c7ccc[nH]7)C=CC5=C6)cc4)cc3)nc2n(CCC)c1=O` yielded NanoBRET Fold Response of 0.98

Cc1nc2n(c(=O)c1CCN1CCC(c3noc4cc(F)ccc34)CC1)CCCC2OC(=O)NCCOCCOCCOCCOCCNC(=O)CCc1ccc2n1[B-](F)(F)[N+]1=C(c3ccc[nH]3)C=CC1=C2 (stereo not drawn) yielded NanoBRET Fold Response of 0.99
